Values compiled from ChEMBL document CHEMBL3885881.

Listing: CHOLESTEROL of selected compounds
Organism: Rattus norvegicus
Method notes: DrugMatrix - Regimen: Daily Repeat
Format: toxicity, organism-based, Sprague-Dawley
Set-up: regimen Daily Repeat, gender Male, age 6-8 weeks
Assay setup: in vivo, po, 0 mg/kg, 72 h, tissue Plasma, route oral GAVAGE, dose level Control, time 3 day, […]
// note: answer is a bare numeric in mg/dL

Recorded CHOLESTEROL, per entry:
CO[C@H]1/C=C/O[C@@]2(C)Oc3c(C)c(O)c4c(O)c(c(/C=N/N5CCN(C6CCCC6)CC5)c(O)c4c3C2=O)NC(=O)/C(C)=C\C=C\[C@H](C)[C@H](O)[C@@H](C)[C@@H](O)[C@@H](C)[C@H](OC(C)=O)[C@@H]1C [RIFAPENTINE]	68.5
CC(C)(C)NC(=O)[C@H]1CC[C@H]2[C@@H]3CC[C@H]4NC(=O)C=C[C@]4(C)[C@H]3CC[C@]12C [FINASTERIDE]	66
COc1cc(N)c(Cl)cc1C(=O)NC1CCN(CCCOc2ccc(F)cc2)CC1OC (centres undefined) [CISAPRIDE]	68.5

Param item = Clc1ccc(COC(Cn2ccnc2)c2ccc(Cl)cc2Cl)cc1 (centres undefined) [ECONAZOLE] ; retrieve measured CHOLESTEROL. 75.67

* * *

Species: Rattus norvegicus
Method notes: DrugMatrix - Regimen: Daily Repeat
Assay type: toxicity, organism-based, Sprague-Dawley
Design: regimen Daily Repeat, gender Male, age 6-8 weeks
Assay setup: in vivo, po, 0 mg/kg, 72 h, tissue Blood, route oral GAVAGE, dose level Control, time 3 day, vehicle .5 % CMC
Known NUCLEATED RED BLOOD CELLS of a selection of molecules

Please review the entries below; each comes with its answer.
O=C1Nc2ccc(Cl)cc2C(c2ccccc2Cl)=NC1O (centres undefined) [LORAZEPAM]	0 /100WBC
CN(C)[C@@H]1C(O)=C(C(N)=O)C(=O)[C@@]2(O)C(O)=C3C(=O)c4c(O)ccc(Cl)c4[C@@](C)(O)[C@H]3C[C@@H]12 [CHLORTETRACYCLINE]	0.67 /100WBC
O=C1CN=C(c2ccccc2Cl)c2cc([N+](=O)[O-])ccc2N1 [CLONAZEPAM]	0 /100WBC

Now consider the entry below.
Quick one: NUCLEATED RED BLOOD CELLS for CCN(CC)CCOc1ccc(/C(=C(/Cl)c2ccccc2)c2ccccc2)cc1 [ENCLOMIPHENE] ? 0 /100WBC

* * *

Entries and their measured ALBUMIN follow.
Species on record: Rattus norvegicus
Method notes: DrugMatrix - Regimen: Daily Repeat
Assay type: toxicity, organism-based, Sprague-Dawley
Set-up: regimen Daily Repeat, gender Male, age 6-8 weeks
Assay setup: in vivo, sc, 0 mg/kg, 72 h, tissue Plasma, route subcutaneous, dose level Control, time 3 day, […]
Numbers only; they are read as G/DL.

CCN(CC)CCOCCC1=CCC2CC1C2(C)C (stereo not given) [MYRTECAINE]	4.28
CCC(=O)O[C@]1(C(=O)CCl)[C@@H](C)C[C@H]2[C@@H]3CCC4=CC(=O)C=C[C@]4(C)[C@@]3(F)[C@@H](O)C[C@@]21C [CLOBETASOL PROPIONATE]	4.08
Oc1c(Cl)cc(Cl)c(Cl)c1Cc1c(O)c(Cl)cc(Cl)c1Cl [HEXACHLOROPHENE]	4.23
CC(C)(C)CC(C)(C)c1ccc(OCCOCC[N+](C)(C)Cc2ccccc2)cc1.[Cl-] [BENZETHONIUM CHLORIDE]	4.23

Turning now to a further record.
Which value of ALBUMIN has been reported for O=C(Nc1ccc(Br)cc1)c1cc(Br)cc(Br)c1O [TRIBROMSALAN] in the records? 4.08
